tested on: barnyardgrass (Echinochloa crus-galli); experiment: Test A pre/postemergence; assay type: in vivo; details: Preemergence, 125 g ai/ha; 0 to 100 scale where 0 is no effect and 100 is complete control; approximately ten days
QUANTITY MEASURED: Plant response rating, Barnyardgrass
Give bare numbers.

Sample answers from the record:
{"columns": ["COMPOUND", "QUANTITY MEASURED", "RESULT"],
 "data": [
  ["CCOC(=O)c1nc(-c2ccc(I)cc2)nc(N)c1Cl [Compound 133]", "Plant response rating, Barnyardgrass", 0],
  ["COC(=O)COc1nc(-c2ccc(Cl)cc2)nc(N)c1Cl [Compound 119]", "Plant response rating, Barnyardgrass", 0],
  ["COC(=O)c1nc(-c2ccc(C)cc2)nc(N)c1Br [Compound 82]", "Plant response rating, Barnyardgrass", 0],
  ["CCOC(=O)c1nc(-c2ccc(C)c(C)c2)nc(N)c1Br [Compound 70]", "Plant response rating, Barnyardgrass", 0],
  ["CCOC(=O)c1nc(-c2cccc(C(F)(F)F)c2)nc(N)c1Cl [Compound 107]", "Plant response rating, Barnyardgrass", 0]
]}

For each of the compounds below, note its Plant response rating, Barnyardgrass.
1. CNc1nc(-c2ccc(Cl)cc2)nc(C(=O)OC)c1Cl [Compound 111]
2. Nc1nc(-c2ccc(Br)cc2)nc(C(=O)O)c1Br [Compound 136]
3. Nc1nc(C2CC2)nc(OCC(=O)[O-])c1Cl.[Na+] [Compound 116]
4. CCOC(=O)c1nc(-c2ccc(OC)cc2)nc(N)c1Cl [Compound 98]

Response line:
1: 0; 2: 5; 3: 10; 4: 0

The reported Plant response rating, Barnyardgrass of the compound CCOC(=O)c1nc(-c2ccc(C)c(C)c2)nc(N)c1Cl [Compound 71] was 0

----------
test system: giant foxtail (Setaria faberii); assay: Test C pre/postemergence; assay type: in vivo; settings: Setaria faberi, pre-emergence; Preemergence, 62 g ai/ha; scale 0 to 100, 0 no effect, 100 complete control; read-out: Plant response rating, Foxtail, Giant
QUANTITY MEASURED: pest or weed control at 62 g/ha (%)
Numbers only, in %.

Examples with answers:
{"columns": ["COMPOUND", "UNIT DESCRIPTOR", "pest or weed control at 62 g/ha"],
 "data": [
  ["Nc1nc(C2CC2)nc(C(=O)OCc2ccccc2)c1Cl [Compound 78]", "%", 0],
  ["Nc1nc(C2CC2)nc(C(=O)O)c1Br [Compound 8]", "%", 0],
  ["Nc1nc(C2CC2)nc(C(=O)OCc2ccccc2)c1Br [Compound 22]", "%", 10],
  ["CCOC(=O)c1nc(C2CC2)nc(N)c1Br [Compound 1]", "%", 0],
  ["CCOC(=O)c1nc(-c2ccc(Cl)cc2)nc(N)c1Cl [Compound 64]", "%", 0]
]}

List reported pest or weed control at 62 g/ha for each of these compounds:
1. Nc1nc(-c2ccc(Br)cc2)nc(C(=O)O)c1Cl [Compound 95]
2. CNc1nc(C2CC2)nc(C(=O)OC)c1Br [Compound 5]
3. CCOC(=O)c1nc(C2CC2)nc(N)c1Cl [Compound 4]
4. COC(=O)c1nc(C2CC2)nc(N)c1Cl [Compound 9]

Response line:
1: 35; 2: 0; 3: 0; 4: 0

----------
tested on: common (oilseed) sunflower (Helianthus annuus); experiment: Test C pre/postemergence; type: in vivo; conditions: Preemergence, 62 g ai/ha; scale 0 to 100, 0 no effect, 100 complete control
For each record, write down the corresponding Plant response rating, Sunflower.
One number for each entry.

See these solved cases before continuing.
{"columns": ["ENTRY SMILES", "QUANTITY MEASURED", "RESULT"],
 "data": [
  ["CCOC(=O)Cc1nc(C2CC2)nc(N)c1Br", "Plant response rating, Sunflower", 0],
  ["CNN=Cc1nc(C2CC2)nc(N)c1Br", "Plant response rating, Sunflower", 15],
  ["COC(=O)Cc1nc(C2CC2)nc(N)c1Br", "Plant response rating, Sunflower", 50],
  ["COC(=O)c1nc(C2CC2)nc(N=CN(C)C)c1Br", "Plant response rating, Sunflower", 70]
]}

Moving on to the next compound.
Data point: CCCOC(=O)c1nc(C2CC2)nc(N)c1Br ; Plant response rating, Sunflower = 65

----------
system: giant foxtail (Setaria faberii); assay: Test B pre/postemergence; format: in vivo; conditions: Setaria faberi, pre-emergence, Preemergence, 500 g ai/ha; scale 0 to 100 (0 no effect, 100 complete control); read-out: Foxtail, Giant plant response rating
Mark Not met for pest or weed control at 500 g/ha values under 20%, and Met for everything at or above.

Below, 5 compounds whose answers are already recorded.
{"columns": ["ENTRY SMILES", "CLASS NAME"],
 "data": [
  ["COC(=O)c1nc(C2CC2)nc(N)c1Br", "Met"],
  ["Nc1nc(C2CC2)nc(C=O)c1F", "Met"],
  ["COC(=O)c1nc(C2CC2)nc(NO)c1Br", "Met"],
  ["CCOC(=O)c1nc(C2CC2)nc(NN)c1Br", "Not met"],
  ["CNc1nc(C2CC2)nc(C(=O)OC)c1Br", "Not met"]
]}

Consider now this further compound.
Prompt line: Say whether COC(=O)c1nc(C2CC2)nc(N)c1F shows pest or weed control at 500 g/ha of 20% or more.
Response line: Met

----------
system: pigweed (Amaranthus retroflexus); experiment: Test C pre/postemergence; assay type: in vivo; details: Amaranthus retroflexus, post-emergence, Postemergence, 31 g ai/ha; read-out: Plant response rating (scale of 0 to 100), Pigweed
Would you kindly list pest or weed control at 31 g/ha for each of these compounds?
Give bare numbers, in %.

{"columns": ["ENTRY SMILES", "EXPERIMENTAL SYSTEM", "UNIT DESCRIPTOR", "pest or weed control at 31 g/ha"],
 "data": [
  ["COC(=O)c1nc(C2CC2)nc(N)c1F", "pigweed (Amaranthus retroflexus)", "%", 50],
  ["Nc1nc(C2CC2)nc(C(=O)O)c1Cl", "pigweed (Amaranthus retroflexus)", "%", 95],
  ["CCOC(=O)c1nc(C2CC2)nc(NN)c1Br", "pigweed (Amaranthus retroflexus)", "%", 10]
]}

Then this compound:
The reported value for COC(=O)c1nc(C2CC2)nc(N)c1Cl in terms of pest or weed control at 31 g/ha is 55

----------
system: crabgrass (Digitaria sanguinalis); test: Test C pre/postemergence; type: in vivo; settings: Postemergence, 125 g ai/ha; scale 0 to 100 (0 no effect, 100 complete control)
# label = 1 (yes) if Crabgrass plant response rating < 40 else 0 (no)

These recorded examples may help you get a feel for the data.
{"columns": ["COMPOUND", "CLASS NAME"],
 "data": [
  ["Nc1nc(-c2ccc(Br)cc2)nc(C(=O)O)c1Br [Compound 136]", "0 (no)"],
  ["COC(=O)c1nc(C2CC2)nc(N=CN(C)C)c1Br [Compound 19]", "0 (no)"],
  ["CCOC(=O)c1nc(-c2ccc(I)cc2)nc(N)c1Cl [Compound 133]", "0 (no)"],
  ["CCCOC(=O)c1nc(C2CC2)nc(N)c1Br [Compound 15]", "0 (no)"],
  ["COC(=O)CNc1nc(C2CC2)nc(C(=O)OC)c1Br [Compound 10]", "1 (yes)"]
]}

Could you now consider this next compound?
Prompt line: Does the reported Crabgrass plant response rating of the following compound sit strictly below 40? CC(C)COC(=O)c1nc(C2CC2)nc(N)c1Br [Compound 17]
Response line: 1 (yes)

----------
Please provide measured pest or weed control at 62 g/ha for the entries that follow.
system: woolly cupgrass (Eriochloa villosa); experiment: Test C pre/postemergence; type: in vivo; details: Eriochloa villosa, post-emergence; Postemergence, 62 g ai/ha; scale 0 to 100 (0 no effect, 100 complete control); read-out: Cupgrass, Woolly plant response rating
One number for each entry, in %.

Please review the entries below; each comes with its answer.
{"columns": ["ENTRY SMILES", "pest or weed control at 62 g/ha, %"],
 "data": [
  ["CCOC(=O)c1nc(C2CC2)nc(N)c1F", 0],
  ["COC(=O)c1nc(C2CC2)nc(N)c1Br", 60],
  ["CCOC(=O)c1nc(-c2ccc(Cl)cc2)nc(N)c1Cl", 40],
  ["COC(=O)c1nc(C2CC2)nc(N)c1Cl", 60]
]}

Then there is this compound:
pest or weed control at 62 g/ha of CCOC(=O)c1nc(C2CC2)nc(N)c1Br , assay on woolly cupgrass (Eriochloa villosa), is 65

----------
System: crabgrass (Digitaria sanguinalis)
Test: Test B pre/postemergence
Assay type: in vivo
Conditions: Preemergence, 500 g ai/ha; scale 0 to 100 (0 no effect, 100 complete control)
Protocol: […] At the same time, plants selected from these crop and weed species and also blackgrass (Alopecurus myosuroides) and wild oat (Avena fatua) were treated with postemergence applications of test chemicals formulated in the same manner. […] Treated plants and controls were maintained in a greenhouse for 13 to 15 days, after which time all species were compared to controls and visually evaluated. […]
QUANTITY MEASURED: Crabgrass plant response rating

Here's what some known entries look like.
{"columns": ["MOLECULE", "EXPERIMENTAL SYSTEM", "RESULT"],
 "data": [
  ["CCOC(=O)C(Cl)(Cl)c1nc(C2CC2)nc(N)c1Br", "crabgrass (Digitaria sanguinalis)", 70],
  ["CCOC(=O)c1nc(-c2ccc(Cl)cc2)nc(N)c1Br", "crabgrass (Digitaria sanguinalis)", 90],
  ["CC(C)COC(=O)c1nc(C2CC2)nc(N)c1Br", "crabgrass (Digitaria sanguinalis)", 100],
  ["CCOC(=O)C(C)c1nc(C2CC2)nc(N)c1Br (stereo not drawn)", "crabgrass (Digitaria sanguinalis)", 40],
  ["CCOC(=O)C(Cl)c1nc(C2CC2)nc(N)c1Br (stereo not drawn)", "crabgrass (Digitaria sanguinalis)", 80]
]}

# molecule Nc1nc(C2CC2)nc(C=NO)c1Br ; its Crabgrass plant response rating = 70

// provenance: patent US8802597B2
